System: Pseudomonas aeruginosa
Test: Antibacterial activity against pandrug-resistant Pseudomonas aeruginosa isolate 101243
Format: functional
Exercise: state measured MIC for each of the molecules provided.
Entry rule: numbers only, all in µg/mL.

Give MIC for the following molecule: C[C@@H](O)[C@H]1C(=O)N2C(C(=O)O)=C(S[C@@H]3CN[C@H](C(=O)N(C)C)C3)[C@H](C)[C@H]12 [MEROPENEM]
16

Give MIC for the following molecule: C[C@@H](O)[C@H]1C(=O)N2C(C(=O)O)=C(S[C@@H]3CN[C@H](CNS(N)(=O)=O)C3)[C@H](C)[C@H]12 [DORIPENEM]
16

Give MIC for the following molecule: COc1c(N2C[C@@H]3CCCN[C@@H]3C2)c(F)cc2c(=O)c(C(=O)O)cn(C3CC3)c12 [MOXIFLOXACIN]
8

Give MIC for the following molecule: CO/N=C(\C(=O)N[C@@H]1C(=O)N2C(C(=O)[O-])=C(C[N+]3(C)CCCC3)CS[C@H]12)c1csc(N)n1 [CEFEPIME]
64

Give MIC for the following molecule: COc1c(N2C[C@@H]3CCCN(CCCCCCCCCCCCO[C@@H]4[C@@H](O[C@H]5O[C@H](CO)[C@@H](O)[C@H](N)[C@H]5O)[C@H](N)C[C@H](N)[C@H]4O[C@H]4O[C@H](CN)[C@@H](O)C[C@H]4N)[C@@H]3C2)c(F)cc2c(=O)c(C(=O)O)cn(C3CC3)c12.Cl.Cl.Cl.Cl.Cl
8

Give MIC for the following molecule: C[C@H]1c2cccc(O)c2C(=O)C2=C(O)[C@]3(O)C(=O)C(C(N)=O)=C(O)[C@@H](N(C)C)[C@@H]3[C@@H](O)[C@@H]21.O [DOXYCYCLINE]
8
